# System: LOC_OS01G01410-cb001;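 note: purified Escherichia coli-expressed rice kinase domain construct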
# measurementNotes: thermal shift delta Tm vs DMSO control; higher = stronger stabilization (binding)
# conditionSummary: 12.5 µM; protein concentration 2 µM
Structures can show the parent of a compound that is named as a salt.
Recorded thermal shift delta Tm determines the group label, using bottom: < 0.6 °C; middle: ≥ 0.6 °C and < 1 °C; top: ≥ 1 °C

compound: Nc1cc(C(F)(F)F)c(-c2cc(N3CCOCC3)nc(N3CCOCC3)n2)cn1 [Buparlisib (BKM120, NVP-BKM120)]
labelClass: bottom

compound: O=c1cc(-c2ccccc2)oc2c(O)c(O)ccc12 [7,8-Dihydroxyflavone]
labelClass: top

compound: O=C(Nc1c[nH]nc1-c1nc2ccc(CN3CCOCC3)cc2[nH]1)NC1CC1
labelClass: top

compound: O=C(c1cccc(Cl)c1F)N1CCN(Cc2cccc(Nc3nccs3)n2)CC1
labelClass: middle

compound: N#CC[C@H](C1CCCC1)n1cc(-c2ncnc3[nH]ccc23)cn1
labelClass: middle

compound: CCn1c(=O)c(-c2ccc(-c3cncs3)cc2Cl)cc2cnc(Nc3ccc(N4CCN(C)CC4)cc3)nc21
labelClass: bottom

compound: CN1CCN(c2ccc(Nc3cc(-c4cccc(-n5ccc6cc(C7CC7)cc(F)c6c5=O)c4CO)cn(C)c3=O)nc2)CC1
labelClass: bottom

compound: O=C(c1ccc(Nc2nccc(-c3cc4ccccc4s3)n2)cc1)N1CCC(N2CCCC2)CC1 [IKK-16 (IKK Inhibitor VII)]
labelClass: top

compound: CC(C)CC(=O)Nc1n[nH]c2c1CN(C(=O)C1CCN(C)CC1)C2(C)C
labelClass: bottom

compound: CN1CCN(Cc2ccc(-c3cnc4[nH]cc(-c5ccc6[nH]ccc6c5)c4c3)cc2)CC1
labelClass: top

compound: C=CC(=O)Nc1cccc(Oc2nc(Nc3ccc(N4CCN(C)CC4)cc3)ncc2Cl)c1
labelClass: top

compound: COc1ccc(COc2cc3oc(=O)c4cc(C(C)O)ccc4c3cc2OC)cc1 (stereo not drawn) [Palomid 529 (P529)]
labelClass: middle

compound: N[C@@H]1CCCN(c2c(/C=C3\SC(=O)NC3=O)cccc2-c2ccccc2)C1
labelClass: bottom

compound: O=C(Nc1cccc(Cl)c1)Nc1ncc(CCNc2ncnc3ccsc23)s1 [SNS-314 Mesylate]
labelClass: top

compound: COc1cc(OC)c(C=C2C(=O)Nc3ccccc32)c(OC)c1
labelClass: bottom

compound: CCn1nc(C2CCN(C(=O)CCO)CC2)nc1-c1cnc(N)c(-c2nnc(C(C)(C)C)o2)n1
labelClass: bottom

compound: CO[C@H]1C[C@@H]2CC[C@@H](C)[C@@](O)(O2)C(=O)C(=O)N2CCCC[C@H]2C(=O)O[C@H]([C@H](C)C[C@@H]2CC[C@@H](OP(C)(C)=O)[C@H](OC)C2)CC(=O)[C@H](C)/C=C(\C)[C@@H](O)[C@@H](OC)C(=O)[C@H](C)C[C@H](C)/C=C/C=C/C=C/1C [Ridaforolimus (Deforolimus, MK-8669)]
labelClass: middle

compound: COc1cc2nccc(Oc3ccc(NC(=O)NC4CC4)c(Cl)c3)c2cc1C(N)=O [Lenvatinib (E7080)]
labelClass: top

compound: COc1cc(N2CCC(N)CC2)ccc1Nc1ncc(Cl)c(-c2c[nH]c3ccccc23)n1
labelClass: middle

compound: Cc1ccc(CNc2ncnc3ccc(-c4ccc(CO)o4)cc23)o1
labelClass: middle

compound: CS(=O)(=O)N1CCc2c(-c3cnc(N)nc3)nc(N3CCOCC3)nc21
labelClass: bottom

compound: c1cn2cc(-c3ccc4cn[nH]c4c3)nc(Nc3ccc(N4CCOCC4)cc3)c2n1 [Entospletinib (GS-9973)]
labelClass: top

compound: CC(C)[C@H](CO)Nc1nc(Nc2cccc(Cl)c2)c2ncn(C(C)C)c2n1 [Purvalanol A]
labelClass: top

compound: O=C(O)c1ccc(-c2c[nH]c3ncc(-c4ccccc4)cc23)cc1C1CCCC1
labelClass: top

compound: O=c1c(-c2ccc(O)cc2)coc2cc(O)cc(O)c12 [Genistein]
labelClass: middle

compound: CNC(=O)c1cc(Oc2ccc3nc(N[C@@H]4CCCC[C@H]4O)sc3c2)ccn1
labelClass: bottom

compound: COc1ccc(/C=C/C(=O)C2(C(=O)/C=C/c3ccc(OC)c(OC)c3)CCCCC2)cc1OC
labelClass: bottom
